The entries below are paired with their reported inhibition.
# Study target: Ephrin type-B receptor 3 (Homo sapiens) (UniProt P54753);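 note: reported value is the mean percent inhibition of EPHB3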
# Sequence (whole entry): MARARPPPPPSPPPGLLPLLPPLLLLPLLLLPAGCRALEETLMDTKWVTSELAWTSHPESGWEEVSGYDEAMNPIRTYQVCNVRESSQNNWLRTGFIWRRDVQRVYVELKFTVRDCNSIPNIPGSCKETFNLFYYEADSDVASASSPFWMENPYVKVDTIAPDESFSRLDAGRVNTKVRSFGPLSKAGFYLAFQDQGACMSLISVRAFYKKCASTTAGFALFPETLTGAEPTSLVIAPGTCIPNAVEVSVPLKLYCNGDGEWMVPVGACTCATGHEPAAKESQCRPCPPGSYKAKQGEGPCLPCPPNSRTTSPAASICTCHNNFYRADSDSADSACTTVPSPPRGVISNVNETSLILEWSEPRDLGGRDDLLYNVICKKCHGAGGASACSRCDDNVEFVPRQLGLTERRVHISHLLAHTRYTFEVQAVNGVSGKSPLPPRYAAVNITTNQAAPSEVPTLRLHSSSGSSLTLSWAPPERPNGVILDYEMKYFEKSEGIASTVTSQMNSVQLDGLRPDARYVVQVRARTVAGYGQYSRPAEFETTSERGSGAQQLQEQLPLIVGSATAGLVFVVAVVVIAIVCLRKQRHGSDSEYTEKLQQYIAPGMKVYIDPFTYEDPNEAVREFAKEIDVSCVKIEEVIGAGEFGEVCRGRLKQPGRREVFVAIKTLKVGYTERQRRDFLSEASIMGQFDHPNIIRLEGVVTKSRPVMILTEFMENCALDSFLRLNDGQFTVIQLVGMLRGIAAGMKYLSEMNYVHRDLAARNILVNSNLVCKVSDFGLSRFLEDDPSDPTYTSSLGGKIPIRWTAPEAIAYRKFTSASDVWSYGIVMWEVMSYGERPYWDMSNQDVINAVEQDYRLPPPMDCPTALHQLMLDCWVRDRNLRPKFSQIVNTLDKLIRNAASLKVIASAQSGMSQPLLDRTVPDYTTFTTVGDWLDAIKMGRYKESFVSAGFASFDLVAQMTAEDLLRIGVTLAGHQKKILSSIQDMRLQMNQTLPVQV
# Test settings: at 0.1 µM

Structure smiles | inhibition
CCS(=O)(=O)c1ccc(OC)c(Nc2ncc(-c3cccc(F)c3)o2)c1 | 3.05%
Fc1cccc(COc2ccc(Nc3ncncc3C#Cc3ccccc3)cc2Cl)c1 | 4.96%
CC1(C)CC(n2cnc(-c3ccc(F)cc3)c2-c2ccnc(N)n2)CC(C)(C)N1 | 3.09%
COC(=O)Nc1nc2ccc(Oc3ccc(NC(=O)Nc4cc(C(F)(F)F)ccc4F)cc3)cc2s1 | 16.8%
CCS(=O)(=O)c1ccc(OC)c(Nc2ncc(-c3cccc(C(C)=O)c3)o2)c1 | 3.26%
CN1CCC(n2cnc(-c3ccc(F)cc3)c2-c2ccnc(NCCO)n2)CC1 | 4.67%
CN(c1ccc(NC(=O)NCCN2CCOCC2)cc1)c1ccnc(Nc2ccc(CS(C)(=O)=O)cc2)n1 | 3.86%
NS(=O)(=O)c1ccc(N/N=C2\C(=O)Nc3ccc(C(=O)NCc4ccncc4)cc32)cc1 | 3.93%
OCCCNc1nccc(-c2c(-c3ccc(F)cc3)nn3cc(C(F)(F)F)ccc23)n1 | 4.77%
CCCNc1cccc(-n2ncc3c(N/N=C/c4ccncc4)ncnc32)c1 | -1.29%

----------
inhibition by entry:
# Study target: Inhibitor of nuclear factor kappa-B kinase subunit alpha (Homo sapiens) (UniProt O15111);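 note: mean percent inhibition from GSK PKIS profiling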
# Sequence (O15111 whole entry): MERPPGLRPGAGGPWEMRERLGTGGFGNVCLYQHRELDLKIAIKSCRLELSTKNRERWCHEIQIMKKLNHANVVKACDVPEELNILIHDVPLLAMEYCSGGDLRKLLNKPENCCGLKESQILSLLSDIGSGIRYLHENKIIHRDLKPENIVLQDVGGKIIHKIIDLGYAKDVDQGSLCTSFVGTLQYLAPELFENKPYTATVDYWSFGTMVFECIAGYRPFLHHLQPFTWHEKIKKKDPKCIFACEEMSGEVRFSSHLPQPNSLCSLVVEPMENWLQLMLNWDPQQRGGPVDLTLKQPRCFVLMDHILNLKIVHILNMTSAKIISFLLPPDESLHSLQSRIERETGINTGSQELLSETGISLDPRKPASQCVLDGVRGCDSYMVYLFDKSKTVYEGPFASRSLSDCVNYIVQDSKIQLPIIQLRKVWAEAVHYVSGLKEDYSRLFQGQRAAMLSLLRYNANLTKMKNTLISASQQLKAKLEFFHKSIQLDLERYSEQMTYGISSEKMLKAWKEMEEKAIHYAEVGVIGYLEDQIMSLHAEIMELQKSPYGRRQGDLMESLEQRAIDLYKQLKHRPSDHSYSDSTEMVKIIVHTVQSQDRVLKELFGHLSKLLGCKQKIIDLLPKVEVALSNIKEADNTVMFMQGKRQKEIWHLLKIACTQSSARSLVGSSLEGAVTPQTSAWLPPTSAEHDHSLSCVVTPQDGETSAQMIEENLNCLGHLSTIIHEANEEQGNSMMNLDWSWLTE
# Test settings: at 0.1 µM
Quantity kind: inhibition (%)

Structure smiles | Study target | Quantity kind | Experimental result
CS(=O)(=O)Nc1ccc(-c2ccc3c(NC(=O)C4CC4)n[nH]c3c2)cc1 | Inhibitor of nuclear factor kappa-B kinase subunit alpha (Homo sapiens) (UniProt O15111) | inhibition | 6.65
CCN1CCC(C(=O)Nc2n[nH]c3nnc(-c4cccc(F)c4F)cc23)CC1 | Inhibitor of nuclear factor kappa-B kinase subunit alpha (Homo sapiens) (UniProt O15111) | inhibition | -3.04
CC(C)c1ccc(-c2cc(-c3c[nH]nc3-c3ccccn3)ccn2)cc1 | Inhibitor of nuclear factor kappa-B kinase subunit alpha (Homo sapiens) (UniProt O15111) | inhibition | 7.45
OCCCNc1nccc(-c2c(-c3ccc(F)cc3)nn3cc(C(F)(F)F)ccc23)n1 | Inhibitor of nuclear factor kappa-B kinase subunit alpha (Homo sapiens) (UniProt O15111) | inhibition | -2.66
COC(=O)Nc1nc2ccc(Oc3ccc(NC(=O)Nc4cc(C(F)(F)F)ccc4F)cc3)cc2s1 | Inhibitor of nuclear factor kappa-B kinase subunit alpha (Homo sapiens) (UniProt O15111) | inhibition | 4.91
O=C(Nc1n[nH]c2nnc(-c3cccnc3)cc12)C1CC1 | Inhibitor of nuclear factor kappa-B kinase subunit alpha (Homo sapiens) (UniProt O15111) | inhibition | 0.84
FC(F)(F)CNc1nccc(-c2cnn3ncccc23)n1 | Inhibitor of nuclear factor kappa-B kinase subunit alpha (Homo sapiens) (UniProt O15111) | inhibition | 1.92
CS(=O)(=O)CCNCc1ccc(-c2ccc3ncnc(Nc4ccc(OCc5ccccc5)cc4)c3c2)o1 | Inhibitor of nuclear factor kappa-B kinase subunit alpha (Homo sapiens) (UniProt O15111) | inhibition | 4.92
CN(c1ccc(NC(=O)NCCN2CCOCC2)cc1)c1ccnc(Nc2ccc(CS(C)(=O)=O)cc2)n1 | Inhibitor of nuclear factor kappa-B kinase subunit alpha (Homo sapiens) (UniProt O15111) | inhibition | 10.9
Cc1c2ccc(N(C)c3ccnc(Nc4cccc(S(N)(=O)=O)c4)n3)cc2nn1C | Inhibitor of nuclear factor kappa-B kinase subunit alpha (Homo sapiens) (UniProt O15111) | inhibition | 7.99
COc1cc2c(cc1Nc1nc(Nc3cccc(F)c3C(N)=O)c3cc[nH]c3n1)N(C(=O)CN1CCN(C(C)C)CC1)CC2 | Inhibitor of nuclear factor kappa-B kinase subunit alpha (Homo sapiens) (UniProt O15111) | inhibition | 2.84
COC(=O)Nc1nc2cc(Oc3ccc(NC(=O)Nc4ccccc4)cc3)ccc2[nH]1 | Inhibitor of nuclear factor kappa-B kinase subunit alpha (Homo sapiens) (UniProt O15111) | inhibition | 10.9
COc1cccc(-n2ncc3c(N/N=C/c4ccc(C(=O)NCCN(C)C)cc4)ncnc32)c1 | Inhibitor of nuclear factor kappa-B kinase subunit alpha (Homo sapiens) (UniProt O15111) | inhibition | 1.29
CS(=O)(=O)CCNCc1ccc(-c2ccc3ncnc(Nc4ccc(OCc5cccc(C(F)(F)F)c5)cc4)c3c2)o1 | Inhibitor of nuclear factor kappa-B kinase subunit alpha (Homo sapiens) (UniProt O15111) | inhibition | 3.34
O=C(O[C@H]1CN[C@H](C#Cc2cc3ncnc(Nc4ccc5c(cnn5Cc5ccccc5)c4)c3s2)C1)N1CCOCC1 | Inhibitor of nuclear factor kappa-B kinase subunit alpha (Homo sapiens) (UniProt O15111) | inhibition | 1.12
CS(=O)(=O)CCNCc1ccoc1-c1ccc2ncnc(Nc3ccc(OCc4ccccc4)cc3)c2c1 | Inhibitor of nuclear factor kappa-B kinase subunit alpha (Homo sapiens) (UniProt O15111) | inhibition | 1.95
COc1cc(Nc2ncc(-c3ccccc3)o2)cc(OC)c1 | Inhibitor of nuclear factor kappa-B kinase subunit alpha (Homo sapiens) (UniProt O15111) | inhibition | 2.7
Cc1cc(O)cc(C)c1/C=C/c1cncc(C(=O)OC(C)(C)C)c1 | Inhibitor of nuclear factor kappa-B kinase subunit alpha (Homo sapiens) (UniProt O15111) | inhibition | 2.35
COc1ccc(Nc2ncc(-c3ccccc3)o2)cc1OC | Inhibitor of nuclear factor kappa-B kinase subunit alpha (Homo sapiens) (UniProt O15111) | inhibition | 5.31
CNC(=O)c1cncc(/C=C/c2ccccc2C)c1 | Inhibitor of nuclear factor kappa-B kinase subunit alpha (Homo sapiens) (UniProt O15111) | inhibition | 1.86
Cc1nnc(-c2cccc(-c3ccc(C(=O)NCC4CC4)cc3)c2)o1 | Inhibitor of nuclear factor kappa-B kinase subunit alpha (Homo sapiens) (UniProt O15111) | inhibition | -9.01
CCS(=O)(=O)c1ccc(OC)c(Nc2ncc(-c3cccc(C(C)=O)c3)o2)c1 | Inhibitor of nuclear factor kappa-B kinase subunit alpha (Homo sapiens) (UniProt O15111) | inhibition | -1.71
COc1cc(N2CCN(C(C)C)CC2)ccc1Nc1nc(Nc2cccc3ncccc23)c2cc[nH]c2n1 | Inhibitor of nuclear factor kappa-B kinase subunit alpha (Homo sapiens) (UniProt O15111) | inhibition | 4.1
O=C(O[C@H]1CN[C@H](C#Cc2cc3ncnc(Nc4ccc(OCc5cccc(F)c5)c(Cl)c4)c3s2)C1)N1CCOCC1 | Inhibitor of nuclear factor kappa-B kinase subunit alpha (Homo sapiens) (UniProt O15111) | inhibition | 6.35
COc1ccc(-c2nn3ncccc3c2-c2ccnc(Nc3ccc(F)c(F)c3)n2)cc1 | Inhibitor of nuclear factor kappa-B kinase subunit alpha (Homo sapiens) (UniProt O15111) | inhibition | 3.55
CS(=O)(=O)Nc1ccc(-c2cc(-c3ccccc3)cc(C(N)=O)c2N)cc1 | Inhibitor of nuclear factor kappa-B kinase subunit alpha (Homo sapiens) (UniProt O15111) | inhibition | 1.46
c1cnn2ncc(-c3ccnc(NCCCN4CCOCC4)n3)c2c1 | Inhibitor of nuclear factor kappa-B kinase subunit alpha (Homo sapiens) (UniProt O15111) | inhibition | 8.06
COc1c(C(N)=O)cc(-c2ccc(Cl)cc2)cc1-c1ccc(S(N)(=O)=O)cc1 | Inhibitor of nuclear factor kappa-B kinase subunit alpha (Homo sapiens) (UniProt O15111) | inhibition | 2.15
CCS(=O)(=O)c1ccc(OC)c(Nc2ncc(-c3cccc(F)c3)o2)c1 | Inhibitor of nuclear factor kappa-B kinase subunit alpha (Homo sapiens) (UniProt O15111) | inhibition | 9.53
O=C(O[C@H]1CN[C@H](C#Cc2cc3ncnc(Nc4ccc5c(ccn5Cc5cc(F)ccc5F)c4)c3s2)C1)N1CCOCC1 | Inhibitor of nuclear factor kappa-B kinase subunit alpha (Homo sapiens) (UniProt O15111) | inhibition | 8.85
NC(=O)c1ccc2c(-c3ccnc(NCCCO)n3)c(-c3ccc(F)cc3)nn2c1 | Inhibitor of nuclear factor kappa-B kinase subunit alpha (Homo sapiens) (UniProt O15111) | inhibition | 8.35
Fc1cccc(COc2ccc(Nc3ncncc3C#Cc3ccccc3)cc2Cl)c1 | Inhibitor of nuclear factor kappa-B kinase subunit alpha (Homo sapiens) (UniProt O15111) | inhibition | 6.1
COc1ccccc1-c1cc(/C=C2\C(=O)Nc3ncc(Br)cc32)cc(Br)c1O | Inhibitor of nuclear factor kappa-B kinase subunit alpha (Homo sapiens) (UniProt O15111) | inhibition | 0.19
